Taken from patent US11129835B2.

# target.entity: Pin1 (Homo sapiens)
# assay.text: confirmatory Pin1 fluorescence polarization competition assay (Alexa488 reconfirmed);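 note: Pin1 competition with a HiFluor488-labelled peptide probe, read as fluorescence polarization after 10 min at room temperature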
Categories are assigned from the measured IC50 using these intervals: low interval (below 5 µM), middle interval (5 µM to below 10 µM), high interval (10 µM or more)

Example entries and their recorded answers appear below.
>>> print(df.to_string())
                                   molecule              cat
0           N#Cc1no[n+]([O-])c1C(=O)c1cccs1     low interval
1       Cc1cc(C(=O)NCc2ccc(C(=O)O)o2)c(C)o1  middle interval
2  O=C1OC(/C(=C\Nc2cc(Cl)ccc2O)[N+](=O)[O-])c2ccccc21 (stereo not shown)     low interval
3  COc1cc(C(c2c(C(=O)O)[nH]c3ccccc23)c2c(C(=O)O)[nH]c3ccccc23)ccc1OCc1ccccc1    high interval
4  Cc1cccc(N(Cc2cc(=O)[nH]c3ccccc23)C(=O)CCl)c1     low interval

query: Record O=C(O)c1cc2cccc([N+](=O)[O-])c2[nH]1 — which class?
result: high interval

query: Form field 'band' for O=C(c1ccc(=O)oc1)N1CCOCC1
result: low interval

====

# target.entity: Pin1 (Homo sapiens)
# assay.text: Pin1 fluorescence polarization competition assay, primary qHTS (HiFluor-488 / Alexa488 probe)
# cond: read-out: Alexa488 Primary Efficacy
Mark 1.0 only for Emax values smaller than 60%; exact matches and larger values are 0.0.

query: Hello, I'm reviewing records and need to know if Emax of O=S(=O)(O)c1ccc(O)c2cc(Nc3ccccc3)ccc12 is below 60%. Could you check?
result: 0.0

query: Hi there! Is Emax for O=C(O)c1cc(Cl)c2c(c1)[C@@H]1C=CC[C@@H]1[C@H](c1ccc(S(=O)(=O)N3CCOCC3)cc1)N2 below 60%, do you know?
result: 0.0

query: Problem: For the molecule O=C1OC(/C(=C\Nc2cc(Cl)ccc2O)[N+](=O)[O-])c2ccccc21 (stereo not drawn) , is Emax under 60%?
result: 0.0

query: Take the molecule O=C(c1cccs1)c1no[n+]([O-])c1C(=O)c1cccs1 and say whether its Emax is less than 60%.
result: 0.0

====

# target.entity: Pin1 (Homo sapiens, UniProt Q13526)
# Sequence (Q13526 whole entry): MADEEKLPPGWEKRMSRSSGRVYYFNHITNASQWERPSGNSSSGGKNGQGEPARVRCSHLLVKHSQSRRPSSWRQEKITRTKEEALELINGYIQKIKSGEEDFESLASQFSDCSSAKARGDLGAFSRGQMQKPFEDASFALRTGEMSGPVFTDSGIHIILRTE
# assay.text: Pin1 fluorescence polarization competition assay, primary qHTS (HiFluor-488 / Alexa488 probe);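 note: Pin1 protein with fluorescent peptide probe, compound displacement read by fluorescence polarization, percent inhibition derived from corrected polarization values, concentration-response curves in 1536-well format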
# cond: Average HTS Potency, average over Alexa488 primary, Alexa488 reconfirmed and Tamra secondary assays
Each entry below carries its recorded pIC50.
Remember the convention: pIC50 equals -log10 of concentration in molar.

Per the records, this compound ( Cc1ccc(C)c2c1NC(C(=O)O)C1CC=CC21 (stereo not drawn) ) has pIC50 equal to 4.54

Item: COc1ccc(NS(=O)(=O)c2ccc3c(c2)[C@H]2C=CC[C@H]2[C@@H](c2ccc(C(=O)O)cc2)N3)cc1 | pIC50: 4.70

Reported pIC50 ( CC(=O)Nc1cc(=O)c2[nH]o[nH]c=2c1=O ) = 5.40

Value of measured pIC50 for the entry Cc1cccc(N(Cc2cc(=O)[nH]c3ccccc23)C(=O)CCl)c1 : 4.87

====

# target.entity: Pin1 (Homo sapiens)
# assay.text: Pin1 fluorescence polarization competition assay, primary qHTS (HiFluor-488 / Alexa488 probe)
# cond: Average HTS Potency, average over Alexa488 primary, Alexa488 reconfirmed and Tamra secondary assays
Exam item: assign Met to entries whose IC50 is below 10 µM and Not met to entries at or above 10 µM. Note that a value of exactly 10 µM receives Not met.

Please review the entries below; each comes with its answer.
>>> print(df.to_string())
                                   compound        target_entity      cat
0  COC(=O)COc1ccc(C2Nc3c(Cl)ccc(C(=O)O)c3C3C=CCC32)cc1 (stereo not drawn)  Pin1 (Homo sapiens)  Not met
1  C=CCOc1ccc(C(c2c(C(=O)O)[nH]c3ccccc23)c2c(C(=O)O)[nH]c3ccccc23)cc1  Pin1 (Homo sapiens)  Not met
2  Cc1ccc(N(Cc2cc(=O)[nH]c3ccccc23)C(=O)CCl)cc1  Pin1 (Homo sapiens)      Met
3  COc1cc(C(c2c(C(=O)O)[nH]c3ccccc23)c2c(C(=O)O)[nH]c3ccccc23)ccc1OCc1ccccc1  Pin1 (Homo sapiens)  Not met
4  Cc1oc(-c2ccc3c(c2)OCCO3)cc1C(=O)NC(Cc1ccccc1)C(=O)O (stereo not drawn)  Pin1 (Homo sapiens)  Not met
5    Cn1nc(-c2ccncc2)nc2c(=O)n(C)c(=O)nc1-2  Pin1 (Homo sapiens)  Not met
6  O=C(O)C1Nc2c(Cl)cc(Cl)c(Cl)c2C2C=CCC12 (stereo not drawn)  Pin1 (Homo sapiens)      Met
7  CC(=O)c1ccc2c(c1)C1C=CCC1C(C(=O)O)N2 (stereo not drawn)  Pin1 (Homo sapiens)      Met
8  O=C(O)C1Nc2c(O)cccc2C2C=CCC12 (stereo not drawn)  Pin1 (Homo sapiens)      Met
9  CCn1nc(-c2ccccc2C)nc2c(=O)n(C)c(=O)nc1-2  Pin1 (Homo sapiens)      Met

query: Does the reported IC50 of O=S(=O)(Nc1nc(-c2sccc2Cl)cs1)c1cc(Cl)ccc1Cl stay below 10 µM?
result: Not met

query: Determine if COc1ccc(S(=O)(=O)N2CCN(C(=O)c3cc4c(s3)CCC4)CC2)cc1 shows IC50 strictly lower than 10 µM.
result: Not met

query: Take the compound CCCCCCCCCCCCN1[C@@H](C(=O)O)c2cc(C(F)(F)F)ccc2S1(=O)=O and say whether its IC50 is less than 10 µM.
result: Not met

query: Item O=C(O)c1[nH]c2ccccc2c1C(c1cc(Br)ccc1O)c1c(C(=O)O)[nH]c2ccccc12 : IC50 beneath 10 µM, strictly?
result: Not met

query: Given the entry O=S(=O)(O)c1ccc(O)c2cc(Nc3ccccc3)ccc12 , would its reported IC50 be below 10 µM?
result: Met

query: Criterion: IC50 strictly below 10 µM. Is it met by O=C(O)c1[nH]c2ccccc2c1C(c1cc(Cl)cc([N+](=O)[O-])c1O)c1c(C(=O)O)[nH]c2ccccc12 ?
result: Not met

query: Strictly below 10 µM: is that where IC50 of O=C(O)Cc1c[nH]c2cccc(O)c12 sits?
result: Not met

====

# target.entity: Pin1 (Homo sapiens)
# assay.text: Pin1 fluorescence polarization competition assay with Tamra-probe (secondary)
# cond: read-out: Tamra Secondary Efficacy
API: label(entry) gives yes if the entry's Emax is strictly smaller than 80%; on equality or larger values it gives no.

These solved cases illustrate the format of a correct answer.
>>> df
                                   molecule  cat
0  CCCCCC(=O)Nc1cc(S(=O)(=O)O)cc2cc(S(=O)(=O)O)cc(O)c12 [Compound 16]   no
1  COc1ccccc1Nc1ccc2c(O)cc(S(=O)(=O)O)cc2c1 [Compound 14]   no
2  O=C(O)C1Nc2c(O)cc(Cl)c([N+](=O)[O-])c2C2C=CCC12 (stereo not shown) [Compound 2]  yes

query: Does the reported Emax of the following molecule sit strictly below 80%? Cc1cc(C(=O)NCc2ccc(C(=O)O)o2)c(C)o1 [Compound 33]
result: yes

query: # check: Emax < 80% for COC(=O)COc1ccc(C2Nc3c(Cl)ccc(C(=O)O)c3C3C=CCC32)cc1 (stereo not shown) [Compound 42]
result: yes

query: Would you kindly verify if Emax of O=C(O)c1[nH]c2ccccc2c1C(c1cc(Br)ccc1O)c1c(C(=O)O)[nH]c2ccccc12 [Compound 43] is strictly less than 80%?
result: yes

query: Take the molecule Cc1ccc(NC(=O)CN(C)C(=O)c2cccc(-n3cccc3)c2)cc1 [Compound 25] and say whether its Emax is less than 80%.
result: yes

query: In the record for O=C(O)C1Nc2ccc(Br)cc2C2C=CCC12 (stereo not shown) [Compound 6] , is Emax less than 80%?
result: no

query: Report whether reported Emax is lower than 80% (strictly) for O=C(O)Cc1c[nH]c2cccc(O)c12 [Compound 23]
result: yes

query: In plain terms, does NS(=O)(=O)c1cc(C(=O)NC2CCSc3ccccc32)ccc1Cl (stereo not shown) [Compound 11] come in under 80% for Emax?
result: no

query: Please let me know if COc1ccc(NS(=O)(=O)c2ccc3c(c2)[C@H]2C=CC[C@H]2[C@@H](c2ccc(C(=O)O)cc2)N3)cc1 [Compound 40] shows Emax below 80%.
result: no

query: hey, is Emax for CCCCOc1ccc(C(=O)N/C(=C/c2cccc([N+](=O)[O-])c2)C(=O)O)cc1 [Compound 36] lower than 80% or not?
result: yes

query: Please check: Emax for Cc1oc(-c2ccc3c(c2)OCCO3)cc1C(=O)NC(Cc1ccccc1)C(=O)O (stereo not shown) [Compound 21] , strictly under 80% or not?
result: yes

query: Threshold test, Emax < 80%: O=C(O)C1Nc2c(C(F)(F)F)ccc(Cl)c2C2C=CCC12 (stereo not shown) [Compound 8]
result: yes

query: State whether 80% exceeds Emax recorded for Cc1ccc(C)n1-c1sccc1C(=O)O [Compound 18] .
result: no
